# PROCEDURE TEXT: Tmax in Sprague-Dawley rat at 20 mg/kg, po administered as single dose
# Format: ADME, organism-based
# Design: dose 20 mg/kg, route oral
# CONDITION NOTES: in vivo

SMILES CODE: O=C(O)Cc1cc(Br)c(N(Cc2ccc(Oc3ccc(F)cc3F)cc2)Cc2cc(F)cc(F)c2)c(Br)c1
Tmax: 30.6 min

---

pIC50 overview
# STUDY SYSTEM: Glucocorticoid receptor (Homo sapiens, UniProt P04150)
# Sequence (P04150 whole entry): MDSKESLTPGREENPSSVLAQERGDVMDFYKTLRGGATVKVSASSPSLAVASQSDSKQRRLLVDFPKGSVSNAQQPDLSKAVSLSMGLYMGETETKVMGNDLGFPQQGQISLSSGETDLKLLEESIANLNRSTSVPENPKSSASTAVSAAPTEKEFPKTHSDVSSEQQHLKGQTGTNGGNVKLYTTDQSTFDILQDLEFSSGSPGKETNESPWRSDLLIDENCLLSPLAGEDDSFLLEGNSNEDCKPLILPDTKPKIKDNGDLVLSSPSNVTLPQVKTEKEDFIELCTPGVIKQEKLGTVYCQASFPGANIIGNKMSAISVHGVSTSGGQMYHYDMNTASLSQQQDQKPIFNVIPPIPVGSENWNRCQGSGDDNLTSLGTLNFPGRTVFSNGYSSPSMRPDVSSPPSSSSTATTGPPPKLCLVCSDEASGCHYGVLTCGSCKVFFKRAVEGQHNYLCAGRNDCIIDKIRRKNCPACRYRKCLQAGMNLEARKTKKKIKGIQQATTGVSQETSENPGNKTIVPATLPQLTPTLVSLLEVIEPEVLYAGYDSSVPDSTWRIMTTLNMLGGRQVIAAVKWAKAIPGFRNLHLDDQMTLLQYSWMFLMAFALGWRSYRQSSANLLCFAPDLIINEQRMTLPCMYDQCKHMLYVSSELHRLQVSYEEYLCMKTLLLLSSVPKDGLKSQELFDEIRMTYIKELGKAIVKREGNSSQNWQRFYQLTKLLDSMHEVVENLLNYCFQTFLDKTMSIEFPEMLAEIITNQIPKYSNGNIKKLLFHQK
# PROCEDURE TEXT: Antagonist activity at human glucocorticoid receptor expressed in GRAF cells assessed as inhibition of dexamethasone-induced alkaline phosphatase expression after 48 hrs by reporter gene assay
# Assay type: functional, cell-based
pIC50: −log10 of the molar value.

SMILES CODE: O=C(O)Cc1cc(Br)c(N(Cc2ccc(Oc3ccccc3Cl)cc2)Cc2cc(F)cc(F)c2)c(Br)c1
pIC50: 6.29

SMILES CODE: O=C(O)Cc1cc(Br)c(N(Cc2ccc(Oc3ccc(F)cc3F)cc2)Cc2cc(F)cc(F)c2)c(Br)c1
pIC50: 6.68

SMILES CODE: COc1cc(C(=O)c2cccc(C)c2)c(Oc2c(Br)cc(CC(=O)O)cc2Br)cc1C(C)C
pIC50: 6.39

SMILES CODE: Cc1c(NS(C)(=O)=O)cccc1N(Cc1ccc(Oc2ccc(F)c(OCC(=O)O)c2)cc1)Cc1cc(F)cc(F)c1
pIC50: 6.36

SMILES CODE: O=C(O)Cc1cc(Br)c(N(Cc2ccc(Oc3ccc(Br)cc3Br)cc2)Cc2cc(F)cc(F)c2)c(Br)c1
pIC50: 5.85

SMILES CODE: O=C(O)Cc1cc(Br)c(N(Cc2ccc(Oc3ccc(Cl)cc3Cl)cc2)Cc2cc(F)cc(F)c2)c(Br)c1
pIC50: 6.41

SMILES CODE: O=C(O)Cc1cc(Br)c(N(Cc2ccc(Oc3ccccc3C(F)(F)F)cc2)Cc2cc(F)cc(F)c2)c(Br)c1
pIC50: 6.22

The reported measurements were obtained from ChEMBL document CHEMBL2086309.
